Experiment: toxicity (LD50) in mice
Details: mouse, in vivo, po
observable: LD50 (mg/kg)
Reply with just the number (in mg/kg).

Please fill in: LD50 reported for CCOC(=O)C1OC(C2(C)OC3(OC4(C=CC3O)OC(C(C)C(=O)C(C)C(O)C(C)CC(C)c3c(Cl)cc(C)c(O)c3C(=O)O)C(C)CC4C)C(C)C2OC)CC1O (stereo not shown) [Antibiotic X-14766A] = 350

====

Assay: toxicity (LD50) in mice
Settings: mouse, in vivo, ip
observable: LD50 (mg/kg)
Report the value in mg/kg with no unit label.

The molecule listed as CCOC(=O)C1OC(C2(C)OC3(OC4(C=CC3O)OC(C(C)C(=O)C(C)C(O)C(C)CC(C)c3c(Cl)cc(C)c(O)c3C(=O)O)C(C)CC4C)C(C)C2OC)CC1O (stereo not shown) [Antibiotic X-14766A] has a reported LD50 of 5.75
